Reference source: ChEMBL document CHEMBL1165950

Provide the recorded growth at 0.1 µM for the entries that follow.
- System: NCI-H226
- method_description: Cytotoxicity against human NCI-H226 cells assessed as cell growth at 100 nM after 48 hrs by sulforhodamine B assay
- Format: functional
- condition_details: NCI-H226, 48 h, read-out: Activity
Answer as a quantity: numeral, then unit.

## Input Report growth at 0.1 µM for Cc1cc(O)cc(-c2nn(CC#N)cc2-c2ccnc(-c3ccc(Oc4ccccc4)cc3)c2)c1 please.
## Output 95%

## Input Report growth at 0.1 µM for Cc1cc(O)cc(-c2nn(CC#N)cc2-c2ccnc(-c3ccc(N(C)C)cc3)c2)c1 please.
## Output 100%

## Input Report growth at 0.1 µM for COc1cc(C)cc(-c2c(-c3ccnc(-c4ccc(C(C)=O)cc4)c3)cnn2CC#N)c1 please.
## Output 96%

## Input Report growth at 0.1 µM for COc1cc(C)cc(-c2nn(CC#N)cc2-c2ccnc(-c3ccc(N(C)C)cc3)c2)c1 please.
## Output 49%

## Input Report growth at 0.1 µM for COc1cc(C)cc(-c2nn(CC#N)cc2-c2ccc(-c3cccc(C(C)=O)c3)nc2)c1 please.
## Output 86%

----------
- System: HCT-15
- method_description: Cytotoxicity against human HCT15 cells assessed as cell growth at 10 uM
- Type: functional
- condition_details: read-out: Activity
Provide the recorded growth at 10 µM for the entries that follow.
Use % as the unit, but write only the number.

## Input Please provide the recorded growth at 10 µM for Cc1cc(O)cc(-c2nn(CC#N)cc2-c2ccnc(-c3ccc(N(C)C)cc3)c2)c1 , tested on HCT-15.
## Output 22.9

## Input Please provide the recorded growth at 10 µM for COc1cc(C)cc(-c2c(-c3ccnc(-c4ccc(C(C)=O)cc4)c3)cnn2CC#N)c1 , tested on HCT-15.
## Output 53.3

## Input Please provide the recorded growth at 10 µM for COc1cc(C)cc(-c2c(-c3ccnc(-c4ccc(N(C)C)cc4)c3)cnn2CC#N)c1 , tested on HCT-15.
## Output 8.33

## Input Please provide the recorded growth at 10 µM for COc1cc(C)cc(-c2nn(CC#N)cc2-c2ccnc(-c3ccc(N(C)C)cc3)c2)c1 , tested on HCT-15.
## Output 8.19

## Input Please provide the recorded growth at 10 µM for Cc1cc(O)cc(-c2nn(CC#N)cc2-c2ccnc(-c3ccccc3)c2)c1 , tested on HCT-15.
## Output 54

----------
Provide the recorded GI50 for the entries that follow.
- Tested on: 786-0
- method_description: Growth inhibition of human 786-0 cells after 48 hrs by sulforhodamine B assay
- Assay type: functional
- condition_details: 786-0, 48 h
Use nM as the unit, but write only the number.

## Input Please provide the recorded GI50 for COc1cc(C)cc(-c2nn(CC#N)cc2-c2ccnc(-c3ccc(N(C)C)cc3)c2)c1 , tested on 786-0.
## Output 420

## Input Please provide the recorded GI50 for COc1cc(C)cc(-c2c(-c3ccnc(-c4ccc(N(C)C)cc4)c3)cnn2CC#N)c1 , tested on 786-0.
## Output 85.3

## Input Please provide the recorded GI50 for COc1cc(C)cc(-c2nn(CC#N)cc2-c2ccc(-c3cccc(C(C)=O)c3)nc2)c1 , tested on 786-0.
## Output 3520

## Input Please provide the recorded GI50 for Cc1cc(O)cc(-c2nn(CC#N)cc2-c2ccnc(-c3ccc(Oc4ccccc4)cc3)c2)c1 , tested on 786-0.
## Output 2140

## Input Please provide the recorded GI50 for COc1cc(C)cc(-c2c(-c3ccnc(-c4ccc(C(C)=O)cc4)c3)cnn2CC#N)c1 , tested on 786-0.
## Output 3110

## Input Please provide the recorded GI50 for Cc1cc(O)cc(-c2nn(CC#N)cc2-c2ccnc(-c3ccc(N(C)C)cc3)c2)c1 , tested on 786-0.
## Output 3410

----------
Provide the recorded growth at 0.1 µM for the entries that follow.
- Tested on: Malme-3M
- method_description: Cytotoxicity against human MALME-3M cells assessed as cell growth at 100 nM after 48 hrs by sulforhodamine B assay
- Assay type: functional
- condition_details: read-out: Activity
Answer as a quantity: numeral, then unit.

## Input Report growth at 0.1 µM for COc1cc(C)cc(-c2nn(CC#N)cc2-c2ccnc(-c3ccc(N(C)C)cc3)c2)c1 please.
## Output 46%

## Input Report growth at 0.1 µM for COc1cc(C)cc(-c2c(-c3ccnc(-c4ccc(N(C)C)cc4)c3)cnn2CC#N)c1 please.
## Output 49%

## Input Report growth at 0.1 µM for COc1cc(C)cc(-c2c(-c3ccnc(-c4ccc(C(C)=O)cc4)c3)cnn2CC#N)c1 please.
## Output 97%

## Input Report growth at 0.1 µM for Cc1cc(O)cc(-c2nn(CC#N)cc2-c2ccnc(-c3ccc(N(C)C)cc3)c2)c1 please.
## Output 94%

## Input Report growth at 0.1 µM for COc1cc(C)cc(-c2nn(CC#N)cc2-c2ccc(-c3cccc(C(C)=O)c3)nc2)c1 please.
## Output 66%

## Input Report growth at 0.1 µM for Cc1cc(O)cc(-c2nn(CC#N)cc2-c2ccnc(-c3ccc(Oc4ccccc4)cc3)c2)c1 please.
## Output 93%

----------
- System: SR
- method_description: Growth inhibition of human SR cells after 48 hrs by sulforhodamine B assay
- Assay type: functional
test_readout: GI50 (nM)
Use nM as the unit, but write only the number.

## Input Report GI50 for Cc1cc(O)cc(-c2nn(CC#N)cc2-c2ccnc(-c3ccc(N(C)C)cc3)c2)c1 please.
## Output 2640

## Input Report GI50 for COc1cc(C)cc(-c2nn(CC#N)cc2-c2ccc(-c3cccc(C(C)=O)c3)nc2)c1 please.
## Output 1620

## Input Report GI50 for COc1cc(C)cc(-c2c(-c3ccnc(-c4ccc(C(C)=O)cc4)c3)cnn2CC#N)c1 please.
## Output 2870

## Input Report GI50 for Cc1cc(O)cc(-c2nn(CC#N)cc2-c2ccnc(-c3ccc(Oc4ccccc4)cc3)c2)c1 please.
## Output 3770

## Input Report GI50 for COc1cc(C)cc(-c2nn(CC#N)cc2-c2ccnc(-c3ccc(N(C)C)cc3)c2)c1 please.
## Output 461

----------
Provide the recorded growth at 10 µM for the entries that follow.
- Test system: TK-10
- method_description: Cytotoxicity against human TK10 cells assessed as cell growth at 10 uM
- Format: functional
- condition_details: read-out: Activity
Use % as the unit, but write only the number.

## Input Report growth at 10 µM for Cc1cc(O)cc(-c2nn(CC#N)cc2-c2ccnc(-c3ccccc3)c2)c1 please.
## Output 84.2

## Input Report growth at 10 µM for COc1cc(C)cc(-c2c(-c3ccnc(-c4cccc(NC(C)=O)c4)c3)cnn2CC#N)c1 please.
## Output 67.1

## Input Report growth at 10 µM for COc1cc(C)cc(-c2nn(CC#N)cc2-c2ccnc(-c3ccc(C#N)cc3)c2)c1 please.
## Output 84.7

## Input Report growth at 10 µM for Cc1cc(O)cc(-c2nn(CC#N)cc2-c2ccnc(-c3ccc(N(C)C)cc3)c2)c1 please.
## Output 52.5

----------
- Tested on: IGROV-1
- method_description: Cytotoxicity against human IGROV1 cells assessed as cell growth at 0.01 uM after 48 hrs by sulforhodamine B assay
- Format: functional
- condition_details: IGROV-1, 48 h, read-out: Activity
# growth at 0.01 µM >= 90% gives MET, anything below gives NOT MET

## Input Tell me whether growth at 0.01 µM is at least 90% here: COc1cc(C)cc(-c2c(-c3ccnc(-c4ccc(N(C)C)cc4)c3)cnn2CC#N)c1
## Output NOT MET

## Input Tell me whether growth at 0.01 µM is at least 90% here: COc1cc(C)cc(-c2nn(CC#N)cc2-c2ccnc(-c3ccc(N(C)C)cc3)c2)c1
## Output MET

## Input Tell me whether growth at 0.01 µM is at least 90% here: Cc1cc(O)cc(-c2nn(CC#N)cc2-c2ccnc(-c3ccc(N(C)C)cc3)c2)c1
## Output MET

## Input Tell me whether growth at 0.01 µM is at least 90% here: COc1cc(C)cc(-c2c(-c3ccnc(-c4ccc(C(C)=O)cc4)c3)cnn2CC#N)c1
## Output MET

## Input Tell me whether growth at 0.01 µM is at least 90% here: Cc1cc(O)cc(-c2nn(CC#N)cc2-c2ccnc(-c3ccc(Oc4ccccc4)cc3)c2)c1
## Output NOT MET

----------
- Tested on: OVCAR-8
- method_description: Cytotoxicity against human OVCAR8 cells assessed as cell growth at 0.01 uM after 48 hrs by sulforhodamine B assay
- Type: functional
- condition_details: OVCAR-8, 48 h, read-out: Activity
Rule: growth at 0.01 µM below 90% gives 1. Equal to or above 90% gives 0.

## Input Is growth at 0.01 µM of COc1cc(C)cc(-c2c(-c3ccnc(-c4ccc(C(C)=O)cc4)c3)cnn2CC#N)c1 strictly below 90%?
## Output 1

## Input Is growth at 0.01 µM of COc1cc(C)cc(-c2c(-c3ccnc(-c4ccc(N(C)C)cc4)c3)cnn2CC#N)c1 strictly below 90%?
## Output 1

## Input Is growth at 0.01 µM of COc1cc(C)cc(-c2nn(CC#N)cc2-c2ccnc(-c3ccc(N(C)C)cc3)c2)c1 strictly below 90%?
## Output 0

## Input Is growth at 0.01 µM of Cc1cc(O)cc(-c2nn(CC#N)cc2-c2ccnc(-c3ccc(N(C)C)cc3)c2)c1 strictly below 90%?
## Output 0
